Where do these numbers come from? They come from paper PMC7073184.

system: rFel d 1 (Felis catus, UniProt P30438+P30440)
Sequence (P30440 18-109): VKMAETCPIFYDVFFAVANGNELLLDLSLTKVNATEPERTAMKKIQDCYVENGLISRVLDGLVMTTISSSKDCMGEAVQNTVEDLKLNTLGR
Sequence (P30438 23-92): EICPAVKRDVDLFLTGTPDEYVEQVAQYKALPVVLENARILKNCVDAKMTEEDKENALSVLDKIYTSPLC
experiment_description: Competitive binding assay with the fluorescent probe 1-NPN
Set-up: species or system cat
protocol_conditions: calculated from IC50 with K1-NPN […]; read-out: Kd
property_name: Kd (µM)

compound=CC(=O)[C@H]1CC[C@H]2[C@@H]3CC=C4C[C@@H](O)CC[C@]4(C)[C@H]3CC[C@]12C reported_value=10.1
compound="CC12C=CCC1C1CCC3CC(=O)CCC3(C)C1CC2 (centres unmarked)" reported_value=2.4

* * *

system: rFel d 1 (Felis catus, UniProt P30438+P30440)
experiment_description: Competitive binding assay with the fluorescent probe 1-NPN
Set-up: species or system cat
protocol_conditions: 1 µM rFel d 1, 2 μM 1-NPN, 25 °C, 50 mM Tris-HCl pH 7.4; competitor 0–16 μM; read-out: IC50
Below is a list of entries, each paired with its recorded IC50 value.
property_name: IC50 (µM)

molecule="CC(=O)[C@H]1CC[C@H]2[C@@H]3CC=C4C[C@@H](O)CC[C@]4(C)[C@H]3CC[C@]12C [Pregnenolone]" property_name=IC50 reported_value=13.1
molecule="CC12C=CCC1C1CCC3CC(=O)CCC3(C)C1CC2 (centres unmarked) [Androstenone]" property_name=IC50 reported_value=3.1

* * *

system: rFel d 1 (Felis catus, UniProt P30438+P30440)
experiment_description: Competitive binding assay with the fluorescent probe 1-NPN
Design: species or system cat
protocol_conditions: calculated from IC50 with K1-NPN […]
property_name: Kd (µM)

mol=CCCCCCCCCCCCCC(=O)O property_name=Kd measurement_unit=µM reported_value=11.1
mol=CCCCCCCCCCCC(=O)O property_name=Kd measurement_unit=µM reported_value=2.6
mol=CC(=O)[C@H]1CC[C@H]2[C@@H]3CCC4=CC(=O)CC[C@]4(C)[C@H]3CC[C@]12C property_name=Kd measurement_unit=µM reported_value=10.5
mol=CCCCC/C=C\C/C=C\CCCCCCCC(=O)O property_name=Kd measurement_unit=µM reported_value=7.8
mol=CCCCCCCC/C=C\CCCCCCCC(=O)O property_name=Kd measurement_unit=µM reported_value=7.7

* * *

system: rFel d 1 (Felis catus, UniProt P30438+P30440)
experiment_description: Competitive binding assay with the fluorescent probe 1-NPN
Parameters: species or system cat
protocol_conditions: 1 µM rFel d 1, 2 μM 1-NPN, 25 °C, 50 mM Tris-HCl pH 7.4; competitor 0–16 μM
Below is a list of entries, each paired with its recorded IC50 value.
property_name: IC50 (µM)

compound="CCCCC/C=C\\C/C=C\\CCCCCCCC(=O)O [Linoleic acid]" measurement_unit=µM reported_value=10.1
compound="CCCCCCCCCCCC(=O)O [Lauric acid]" measurement_unit=µM reported_value=3.3
compound="CCCCCCCCCCCCCC(=O)O [Myristic acid]" measurement_unit=µM reported_value=14.4
compound="CC(=O)[C@H]1CC[C@H]2[C@@H]3CCC4=CC(=O)CC[C@]4(C)[C@H]3CC[C@]12C [Progesterone]" measurement_unit=µM reported_value=13.6
compound="CCCCCCCC/C=C\\CCCCCCCC(=O)O [Oleic acid]" measurement_unit=µM reported_value=10

* * *

system: rFel d 1 (Felis catus, UniProt P30438+P30440)
experiment_description: 1-NPN displacement screening (fluorescence)
Assay type: binding, cat
protocol_conditions: 1 µM rFel d 1, 1 μM 1-NPN, 2 µM competitive ligand
property_name: 1-NPN Displacement Screening

compound=C[C@]12CC[C@@H]3c4ccc(O)cc4CC[C@H]3[C@@H]1CCC2=O reported_value=Yes
compound="C[C@]12CCC(=O)C[C@@H]1CC[C@@H]1[C@@H]2CC[C@]2(C)[C@@H](O)CC[C@@H]12 [Dihydrotestosterone]" reported_value=No
compound="C[C@]12CC[C@H](O)CC1=CC[C@@H]1[C@@H]2CC[C@]2(C)C(=O)CC[C@@H]12 [Dehydroepiandrosterone (DHEA), Dehydroepiandrosterone]" reported_value=Yes
compound="CCCCCCCCCCCCCCCC(=O)OC [Methyl Palmitate]" reported_value=No
compound="CC12C=CCC1C1CCC3CC(=O)CCC3(C)C1CC2 (centres unmarked)" reported_value=Yes
compound=C[C@]12CCC(=O)C=C1CC[C@@H]1[C@@H]2CC[C@]2(C)C(=O)CC[C@@H]12 reported_value=Yes
compound=C[C@]12CC[C@@H]3c4ccc(O)cc4CC[C@H]3[C@@H]1CC[C@@H]2O reported_value=Yes
compound=CCCCCCCC/C=C\CCCCCCCC(=O)O reported_value=Yes
compound="CC(=O)[C@@]1(O)CC[C@H]2[C@@H]3CCC4=CC(=O)CC[C@]4(C)[C@H]3CC[C@@]21C [Hydroxyprogesterone]" reported_value=Yes
compound=CCCCC/C=C\C/C=C\CCCCCCCC(=O)O reported_value=Yes
compound=CCCCCCCCCCCCCC(=O)O reported_value=Yes
compound=CCCCCCCCCCCCO reported_value=No
compound=CCCCCCCCCCCCCCCC(=O)O reported_value=Yes
compound="CCCCCCCCCCCC(=O)OCC [Ethyl Laurate]" reported_value=No
compound=CC(=O)[C@H]1CC[C@H]2[C@@H]3CC=C4C[C@@H](O)CC[C@]4(C)[C@H]3CC[C@]12C reported_value=Yes
compound=CCCCCCCCCCCC(=O)O reported_value=Yes
compound=CC(=O)[C@H]1CC[C@H]2[C@@H]3CCC4=CC(=O)CC[C@]4(C)[C@H]3CC[C@]12C reported_value=Yes
compound=CCCCCCCCCCCC=O reported_value=No
compound=C[C@]12CC[C@H]3[C@@H](CCC4=CC(=O)CC[C@@]43C)[C@@H]1CC[C@@H]2O reported_value=Yes
compound=C[C@]12C[C@H](O)[C@H]3[C@@H](CCC4=CC(=O)CC[C@@]43C)[C@@H]1CC[C@@H]2C(=O)CO reported_value=No
compound=C[C@]12CC[C@@H](O)C[C@@H]1CC[C@@H]1[C@@H]2CC[C@]2(C)C=CC[C@@H]12 reported_value=No
compound=CCCCCCCCCC(=O)O reported_value=No
compound=CCCCCCCCCCCCCCO reported_value=No

* * *

system: rFel d 1 (Felis catus, UniProt P30438+P30440)
experiment_description: 1-NPN binding to rFel d 1 (fluorescence titration)
Parameters: species or system cat
protocol_conditions: 1 µM rFel d 1, Scatchard plot; read-out: dissociation constant K1-NPN (Scatchard analysis)
property_name: Kd (µM)

compound="c1ccc(Nc2cccc3ccccc23)cc1 [1-NPN, N-phenyl-1-naphthylamine, reference compound]" system="rFel d 1 (Felis catus, UniProt P30438+P30440)" measurement_unit=µM reported_value=4.8
